- target.or.system: recombinant PRL-3 (Homo sapiens, UniProt O75365)
- Construct: 6xHis (N, cleaved yes); made in house; host or cells: E. coli One Shot BL21 Star
- Sequence (O75365 whole entry): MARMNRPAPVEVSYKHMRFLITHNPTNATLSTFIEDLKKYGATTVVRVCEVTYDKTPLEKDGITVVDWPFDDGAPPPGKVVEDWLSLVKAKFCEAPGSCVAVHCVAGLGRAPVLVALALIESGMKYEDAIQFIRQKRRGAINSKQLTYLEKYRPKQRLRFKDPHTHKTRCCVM
- assay.method.text: In vitro phosphatase assay (DiFMUP hydrolysis), PRL-3; further: test concentration or dose not given here
- Format: biochemical
- condition.description: FDA-approved drug screen; compared to DMSO
result.type: % Phosphatase Activity (compared to DMSO) PRL-3 (%)
# output: bare number, implied unit %

compound	recorded.number
Clc1ccc(COC(Cn2ccnc2)c2ccc(Cl)cc2Cl)c(Cl)c1 (stereo not shown) [Miconazole]	86
NNC(=O)c1ccncc1	91
COc1cc2c(cc1OC)CC(=O)N(CCCN(C)C[C@H]1Cc3cc(OC)c(OC)cc31)CC2.Cl [Ivabradine HCl]	71

Name the recorded % Phosphatase Activity (compared to DMSO) PRL-3 of the item COc1ccc(CC2c3cc(OC)c(OC)cc3CC[N+]2(C)CCC(=O)OCCCCCOC(=O)CC[N+]2(C)CCc3cc(OC)c(OC)cc3C2Cc2ccc(OC)c(OC)c2)cc1OC (stereo not shown) [Atracurium Besylate] in your answer.
101

Quote % Phosphatase Activity (compared to DMSO) PRL-3 reported for CC(=O)Nc1ccccc1 [Acetanilide] please.
81

Hello, please tell me recorded % Phosphatase Activity (compared to DMSO) PRL-3 for this one: "CCc1oc2ccccc2c1C(=O)c1cc(Br)c(O)c(Br)c1"
51

Recall and state the measured % Phosphatase Activity (compared to DMSO) PRL-3 for C[N+](C)(C)CCCCCCCCCC[N+](C)(C)C [Decamethonium Bromide] .
71

Note % Phosphatase Activity (compared to DMSO) PRL-3 for the compound shown: "CC(=O)O[C@H]1C(=O)[C@@]2(C)[C@H]([C@H](OC(=O)c3ccccc3)[C@]3(O)C[C@H](OC(=O)[C@H](O)[C@@H](NC(=O)c4ccccc4)c4ccccc4)C(C)=C1C3(C)C)[C@]1(OC(C)=O)CO[C@@H]1C[C@@H]2O"
76

Provide measured % Phosphatase Activity (compared to DMSO) PRL-3 value, entry: CCN(CC)Cc1cc(Nc2ccnc3cc(Cl)ccc23)ccc1O.Cl.Cl.O.O [Amodiaquin (dihydrochloride dihydrate)]
77
